Collected melting point values appear next to each entry.
QUANTITY: melting point (°C)

[
  {
    "COMPOUND": "OB(O)c1cc(C(F)(F)F)cc(C(F)(F)F)c1 [3,5-bis(trifluoromethyl)benzeneboronic acid]",
    "QUANTITY": "melting point",
    "RECORDED MEASUREMENT": 222
  },
  {
    "COMPOUND": "CC(=O)c1cc(Cl)ccc1Cl [2',5'-dichloroacetophenone]",
    "QUANTITY": "melting point",
    "RECORDED MEASUREMENT": 12
  },
  {
    "COMPOUND": "CC[C@H]1OC(=O)[C@H](C)[C@@H](O[C@@H]2C[C@](C)(OC)[C@H](O)[C@@H](C)O2)[C@H](C)[C@@H](O[C@@H]2O[C@H](C)C[C@H](N(C)C)[C@H]2O)[C@](C)(OC)C[C@@H](C)C(=O)[C@H](C)[C@@H](O)[C@]1(C)O [Clarithromycin]",
    "QUANTITY": "melting point",
    "RECORDED MEASUREMENT": 218
  },
  {
    "COMPOUND": "O=[N+]([O-])c1ccc(Oc2ccccc2)cc1 [4-nitrophenyl phenyl ether]",
    "QUANTITY": "melting point",
    "RECORDED MEASUREMENT": 55
  },
  {
    "COMPOUND": "O=C(O)c1cc(O)ccc1O [2,5-Dihydroxybenzoic acid]",
    "QUANTITY": "melting point",
    "RECORDED MEASUREMENT": 205
  },
  {
    "COMPOUND": "Cc1ccc(S)c(S)c1 [3,4-toluenedithiol]",
    "QUANTITY": "melting point",
    "RECORDED MEASUREMENT": 30
  },
  {
    "COMPOUND": "O=S(=O)(O)CCCNC(CO)(CO)CO",
    "QUANTITY": "melting point",
    "RECORDED MEASUREMENT": 230
  },
  {
    "COMPOUND": "O=[N+]([O-])c1ccc(F)cc1 [1-fluoro-4-nitrobenzene]",
    "QUANTITY": "melting point",
    "RECORDED MEASUREMENT": 23
  },
  {
    "COMPOUND": "N#CCC#N [malononitrile]",
    "QUANTITY": "melting point",
    "RECORDED MEASUREMENT": 34
  },
  {
    "COMPOUND": "O=Cc1ccccc1 [Benzaldehyde]",
    "QUANTITY": "melting point",
    "RECORDED MEASUREMENT": -56
  },
  {
    "COMPOUND": "O=C(O)Cc1ccccc1 [phenylacetic_acid]",
    "QUANTITY": "melting point",
    "RECORDED MEASUREMENT": 79
  },
  {
    "COMPOUND": "CC(=O)OC1CCC2(C)C(CC(=O)C3C4CCC(=O)C4(C)CCC32)C1 (centres undefined) [7,17-dioxoandrostan-3-yl acetate]",
    "QUANTITY": "melting point",
    "RECORDED MEASUREMENT": 165
  },
  {
    "COMPOUND": "N#C/C(=C\\c1ccccc1)c1nc2ccccc2s1 [(2E)-2-(1,3-Benzothiazol-2-yl)-3-phenylacrylonitrile]",
    "QUANTITY": "melting point",
    "RECORDED MEASUREMENT": 106
  },
  {
    "COMPOUND": "CC1(C)OC(C)(C(O)(Cc2ccccc2)Cc2ccccc2)CCC1C(=O)O (centres undefined)",
    "QUANTITY": "melting point",
    "RECORDED MEASUREMENT": 138
  },
  {
    "COMPOUND": "CC(C)(C)c1cc(O)c(C(C)(C)C)cc1O [2,5-Di-tert-butylbenzene-1,4-diol]",
    "QUANTITY": "melting point",
    "RECORDED MEASUREMENT": 218
  },
  {
    "COMPOUND": "CN1CCN(C2CCNCC2)CC1 [1-methyl-4-(4-piperidinyl)piperazine]",
    "QUANTITY": "melting point",
    "RECORDED MEASUREMENT": 55
  },
  {
    "COMPOUND": "COc1cc(Cl)cc(B(O)O)c1 [3-chloro-5-methoxybenzeneboronic acid]",
    "QUANTITY": "melting point",
    "RECORDED MEASUREMENT": 187
  },
  {
    "COMPOUND": "O=Cc1ccc([N+](=O)[O-])cc1[N+](=O)[O-] [2,4-dinitrobenzaldehyde]",
    "QUANTITY": "melting point",
    "RECORDED MEASUREMENT": 67
  },
  {
    "COMPOUND": "ClCCCCCl [1,4-dichlorobutane]",
    "QUANTITY": "melting point",
    "RECORDED MEASUREMENT": -38
  },
  {
    "COMPOUND": "Nc1ncnc2c1ncn2[C@@H]1O[C@H](CO)[C@@H](O)[C@H]1O [Adenosine]",
    "QUANTITY": "melting point",
    "RECORDED MEASUREMENT": 236
  },
  {
    "COMPOUND": "O=[N+]([O-])c1ccc(F)cc1F [2,4-difluoro-1-nitrobenzene]",
    "QUANTITY": "melting point",
    "RECORDED MEASUREMENT": 10
  },
  {
    "COMPOUND": "Cc1ccc(Oc2ccccc2C=O)cc1 [2-(p-tolyloxy)benzaldehyde]",
    "QUANTITY": "melting point",
    "RECORDED MEASUREMENT": 55
  },
  {
    "COMPOUND": "COc1ccc([C@@H]2CC(=O)c3c(O)cc(O)cc3O2)cc1O [3',5,7-trihydroxy-4'-methoxyflavanone]",
    "QUANTITY": "melting point",
    "RECORDED MEASUREMENT": 230
  },
  {
    "COMPOUND": "O=Cc1ccc(C(F)(F)F)cc1 [4-(trifluoromethyl)benzaldehyde]",
    "QUANTITY": "melting point",
    "RECORDED MEASUREMENT": 2
  },
  {
    "COMPOUND": "O=C(O)C(Cl)Cl [Dichloroacetic acid]",
    "QUANTITY": "melting point",
    "RECORDED MEASUREMENT": 9.7
  },
  {
    "COMPOUND": "Cc1ccc(Cl)cc1 [4-chlorotoluene]",
    "QUANTITY": "melting point",
    "RECORDED MEASUREMENT": 8
  },
  {
    "COMPOUND": "O=c1ccc2cc([N+](=O)[O-])ccc2o1 [6-nitrocoumarin]",
    "QUANTITY": "melting point",
    "RECORDED MEASUREMENT": 188
  },
  {
    "COMPOUND": "CCN(CC)CCNC(=O)c1cc(Cl)c(N)cc1OC [Metoclopramide]",
    "QUANTITY": "melting point",
    "RECORDED MEASUREMENT": 147
  },
  {
    "COMPOUND": "O=C1c2ccccc2C(=O)N1OCCCCBr [N-(4-bromobutoxy)phthalimide]",
    "QUANTITY": "melting point",
    "RECORDED MEASUREMENT": 71
  },
  {
    "COMPOUND": "BrCCOc1ccccc1 [2-phenoxyethyl bromide]",
    "QUANTITY": "melting point",
    "RECORDED MEASUREMENT": 33
  },
  {
    "COMPOUND": "O=S(=O)(NS(=O)(=O)C(F)(F)F)C(F)(F)F",
    "QUANTITY": "melting point",
    "RECORDED MEASUREMENT": 51.5
  },
  {
    "COMPOUND": "CCSc1nnc(N)s1 [2-amino-5-ethylthio-1,3,4-thiadiazole]",
    "QUANTITY": "melting point",
    "RECORDED MEASUREMENT": 132
  },
  {
    "COMPOUND": "O=S(=O)=O [Oxosulfane dioxide]",
    "QUANTITY": "melting point",
    "RECORDED MEASUREMENT": 16.8
  },
  {
    "COMPOUND": "O=C(O)C1CCCC1 [cyclopentanecarboxylic acid]",
    "QUANTITY": "melting point",
    "RECORDED MEASUREMENT": -7
  },
  {
    "COMPOUND": "C=C1N(C(C)=O)c2ccccc2C1(C)C(=O)OC (centres undefined)",
    "QUANTITY": "melting point",
    "RECORDED MEASUREMENT": 60
  },
  {
    "COMPOUND": "CCCCCCCC(C)=O [2-nonanone]",
    "QUANTITY": "melting point",
    "RECORDED MEASUREMENT": -15
  },
  {
    "COMPOUND": "COc1cccc(B(O)O)c1 [3-methoxybenzeneboronic acid]",
    "QUANTITY": "melting point",
    "RECORDED MEASUREMENT": 160
  },
  {
    "COMPOUND": "O=C1c2ccccc2-c2ccccc21 [9H-Fluoren-9-one]",
    "QUANTITY": "melting point",
    "RECORDED MEASUREMENT": 83
  },
  {
    "COMPOUND": "c1ccc(Oc2ccccc2)cc1 [Diphenyl ether]",
    "QUANTITY": "melting point",
    "RECORDED MEASUREMENT": 27
  }
]
